target: full-length human PDE4D5 (Homo sapiens, UniProt Q08499); construct: stably expressed the full-length human PDE4D5, PDE4A4 and PDE4B1 long isoforms; made in house; cytosol fraction of the lysate; assay: PDE4 radio-assay, PDE4D5 long form activation (Experiment 1); type: biochemical; conditions: 50 μM compound; n ≥ 2; read-out: PDE4D5 activity (mean % increase in counts over basal activity without added compound)
Sequence (Q08499 1-745 isoform Q08499-6): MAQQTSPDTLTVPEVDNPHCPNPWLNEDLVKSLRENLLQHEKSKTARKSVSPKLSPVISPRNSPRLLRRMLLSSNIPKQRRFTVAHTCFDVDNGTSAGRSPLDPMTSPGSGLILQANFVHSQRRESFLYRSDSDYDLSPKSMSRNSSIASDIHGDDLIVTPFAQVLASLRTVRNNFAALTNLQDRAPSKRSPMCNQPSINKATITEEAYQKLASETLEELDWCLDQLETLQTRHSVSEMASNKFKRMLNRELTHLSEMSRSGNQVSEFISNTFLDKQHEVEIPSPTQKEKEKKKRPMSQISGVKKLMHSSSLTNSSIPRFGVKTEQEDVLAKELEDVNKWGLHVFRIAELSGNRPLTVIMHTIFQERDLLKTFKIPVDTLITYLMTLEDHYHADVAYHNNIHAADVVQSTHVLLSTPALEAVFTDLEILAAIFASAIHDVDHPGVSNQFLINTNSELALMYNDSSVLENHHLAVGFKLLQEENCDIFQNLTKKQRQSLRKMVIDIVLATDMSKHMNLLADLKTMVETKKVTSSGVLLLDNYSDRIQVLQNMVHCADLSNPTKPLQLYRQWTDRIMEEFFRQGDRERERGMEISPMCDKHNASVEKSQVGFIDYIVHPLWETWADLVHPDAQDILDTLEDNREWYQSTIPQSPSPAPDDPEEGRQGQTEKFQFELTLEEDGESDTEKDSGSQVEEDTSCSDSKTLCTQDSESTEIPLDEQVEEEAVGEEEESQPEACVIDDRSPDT
assay-endpoint: activation at 50 µM (%)

(P) COCc1nc(-c2ccc(Cl)cc2)nn1CC(=O)NCc1ccccc1
(Q) CCc1nc(-c2ccc(Cl)c(F)c2)nn1CC(=O)NCc1cccc(C(F)(F)F)c1
(R) CCc1nc(-c2ccc(Cl)c(F)c2)nn1CC(=O)NCc1ccc(OC)c(OC)c1
Lookup: Rank the molecules listed above in increasing order of activation at 50 µM. Could you list the labels in the order requested?
Found: P, Q, R

(A) CCc1nc(-c2ccc(Cl)c(F)c2)nn1CC(=O)NCc1cccc(F)c1
(B) CCc1nc(-c2ccc(Cl)c(F)c2)nn1CC(=O)NCc1cccc(OC)c1
Lookup: Between the two listed entries A and B , which has its activation at 50 µM at the higher number? Give the label of your selection.
Found: B

(P) CCc1nc(-c2ccc(Cl)c(F)c2)nn1CC(=O)NCc1ccccc1F
(Q) Cc1nc(-c2ccc(Cl)cc2)nn1CC(=O)NCc1ccccc1
Lookup: Which of the two items, P and Q , has the greater recorded activation at 50 µM? Mark your selection by writing its label.
Found: Q

* * *

assay: Pharmacokinetic profile in male SD rats (Experiment 8); format: in vivo, rat; details: rat, oral, 10 mg/kg p.o. vs 2 mg/kg i.v., plasma
assay-endpoint: bioavailability (%)
State just the number; it will be interpreted in %.

Lookup result for CCc1nc(-c2ccc(Cl)c(F)c2)nn1CC(=O)NCc1cccc(F)c1 ; measured bioavailability: 100

* * *

biological target: full-length human PDE4D5 (Homo sapiens); construct: stably expressed the full-length human PDE4D5, PDE4A4 and PDE4B1 long isoforms; made in house; cytosol fraction of the lysate; assay: PDE4 radio-assay, PDE4D5 long form activation (Experiment 1); assay type: biochemical; conditions: 3 μM compound; n ≥ 2; read-out: PDE4D5 activity (mean % increase in counts over basal activity without added compound)
assay-endpoint: activation at 3 µM (%)

COCc1nc(-c2ccc(OC(F)(F)F)cc2)nn1CC(=O)NCc1cccc(F)c1    30.6

(I) CCc1nc(-c2ccc(Cl)c(F)c2)nn1CC(=O)NCc1ccc(OC)c(OC)c1
(II) CCc1nc(-c2ccc(Cl)c(F)c2)nn1CC(=O)NCc1cccc(F)c1
(III) COCc1nc(-c2ccc(Cl)cc2)nn1CC(=O)NCc1ccccc1
Lookup: Arrange these 3 compounds in increasing order of activation at 3 µM. List the labels in the requested order.
Found: II, III, I

* * *

test: In vitro clearance using human hepatocytes (Experiment 6); format: in vitro ADME; conditions: human, cryopreserved human hepatocytes; 1 μM compound, 1 million cells/ml, 37° C.
assay-endpoint: half-life at 1 μM (min)
The figure you give is taken to be in min; do not add the unit.

The compound CCc1nc(-c2ccc(Cl)c(F)c2)nn1CC(=O)NCc1cccc(F)c1 showed half-life at 1 μM equal to 54

* * *

molecular target: full-length human PDE4D5 (Homo sapiens, UniProt Q08499); construct: stably expressed the full-length human PDE4D5, PDE4A4 and PDE4B1 long isoforms; made in house; cytosol fraction of the lysate; assay: PDE4 radio-assay, PDE4D5 long form activation (Experiment 1); format: biochemical; settings: 30 μM compound; n ≥ 2; read-out: PDE4D5 activity (mean % increase in counts over basal activity without added compound)
assay-endpoint: activation at 30 µM (%)

(I) CCc1nc(-c2ccc(Cl)c(F)c2)nn1CC(=O)NCc1cccc(F)c1
(II) COCc1nc(-c2ccc(Cl)cc2)nn1CC(=O)NCc1ccccc1
(III) COCc1nc(-c2ccc(OC(F)(F)F)cc2)nn1CC(=O)NCc1cccc(F)c1
(IV) CCc1nc(-c2ccc(Cl)c(F)c2)nn1CC(=O)NCc1ccc(OC)c(OC)c1
Lookup: Which order do the above molecules take when sorted by rising activation at 30 µM? Smallest first. Give the order by naming the labels one after another as requested.
Found: I, II, III, IV
(I: 39.7%, II: 64.6%, III: 126%, IV: 214%)

* * *

assay: Pharmacokinetic profile in male C57 mice (Experiment 7); type: in vivo, mouse; conditions: mouse, po, 10 mg/kg p.o., whole blood, read-out: terminal half life after oral dosing (converted)
assay-endpoint: half-life (h)
Enter your answer as a number in h; do not include the unit.

Just so you know, measured half-life for CCc1nc(-c2ccc(Cl)c(F)c2)nn1CC(=O)NCc1cccc(F)c1 came out at 4.9

* * *

biological target: full-length human PDE4D5 (Homo sapiens); construct: stably expressed the full-length human PDE4D5, PDE4A4 and PDE4B1 long isoforms; made in house; cytosol fraction of the lysate; test: PDE4 radio-assay, PDE4D5 long form activation (Experiment 1); assay type: biochemical; settings: 10 μM compound; n ≥ 2; read-out: PDE4D5 activity (mean % increase in counts over basal activity without added compound)
assay-endpoint: activation at 10 µM (%)

(P) CCc1nc(-c2ccc(Cl)c(F)c2)nn1CC(=O)NCc1ccc(OC)c(OC)c1 [Example L]
(Q) CCc1nc(-c2ccc(Cl)c(F)c2)nn1CC(=O)NCc1cccc(F)c1 [Example A]
(R) COCc1nc(-c2ccc(OC(F)(F)F)cc2)nn1CC(=O)NCc1cccc(F)c1 [Example D]
(S) COCc1nc(-c2ccc(Cl)cc2)nn1CC(=O)NCc1ccccc1 [Example B]
Lookup: Rank by activation at 10 µM (largest to smallest). In your reply, arrange the labels in the requested order.
Found: P, R, S, Q

* * *

target: full-length human PDE4D5 (Homo sapiens); construct: stably expressed the full-length human PDE4D5, PDE4A4 and PDE4B1 long isoforms; made in house; cytosol fraction of the lysate; assay: PDE4 radio-assay, PDE4D5 long form activation (Experiment 1); format: biochemical; settings: 50 μM compound; n ≥ 2; read-out: PDE4D5 activity (mean % increase in counts over basal activity without added compound)
assay-endpoint: activation at 50 µM (%)

CCc1nc(-c2ccc(Cl)c(F)c2)nn1CC(=O)NCc1cccc(C#N)c1 [Example F]    107

(A) CCc1nc(-c2ccc(Cl)c(F)c2)nn1CC(=O)NCc1cccc(Cl)c1 [Example E]
(B) COCc1nc(-c2ccc(OC(F)(F)F)cc2)nn1CC(=O)NCc1cccc(F)c1 [Example D]
Lookup: Between the two listed entries A and B , which has its activation at 50 µM at the higher number? Bench note: the answer is the label of the chosen record.
Found: B
(B: 196%, A: 71.1%)

* * *

experiment: Pharmacokinetic profile in male SD rats (Experiment 8); format: in vivo, rat; details: rat, po, 10 mg/kg p.o., plasma, read-out: terminal half life after oral dosing (converted)
assay-endpoint: half-life (h)
The answer is to be given in h; state only the numeric part.

Entry CCc1nc(-c2ccc(Cl)c(F)c2)nn1CC(=O)NCc1cccc(F)c1 [Example A] — recorded half-life = 9.1

* * *

assay: Pharmacokinetic profile in male C57 mice (Experiment 7); type: in vivo, mouse; details: mouse, iv, 2 mg/kg i.v., whole blood, read-out: terminal half life after i.v. dosing (converted)
assay-endpoint: half-life (h)
// note: answer is a bare numeric in h

According to the records, this compound CCc1nc(-c2ccc(Cl)c(F)c2)nn1CC(=O)NCc1cccc(F)c1 displays half-life of 4.2
